- target.entity: full-length beta-Catenin (Uniprot ID P35222) (Homo sapiens, UniProt P35222)
- Construct: 10 nM full-length beta-Catenin (Uniprot ID P35222)
- Sequence (P35222 1-781): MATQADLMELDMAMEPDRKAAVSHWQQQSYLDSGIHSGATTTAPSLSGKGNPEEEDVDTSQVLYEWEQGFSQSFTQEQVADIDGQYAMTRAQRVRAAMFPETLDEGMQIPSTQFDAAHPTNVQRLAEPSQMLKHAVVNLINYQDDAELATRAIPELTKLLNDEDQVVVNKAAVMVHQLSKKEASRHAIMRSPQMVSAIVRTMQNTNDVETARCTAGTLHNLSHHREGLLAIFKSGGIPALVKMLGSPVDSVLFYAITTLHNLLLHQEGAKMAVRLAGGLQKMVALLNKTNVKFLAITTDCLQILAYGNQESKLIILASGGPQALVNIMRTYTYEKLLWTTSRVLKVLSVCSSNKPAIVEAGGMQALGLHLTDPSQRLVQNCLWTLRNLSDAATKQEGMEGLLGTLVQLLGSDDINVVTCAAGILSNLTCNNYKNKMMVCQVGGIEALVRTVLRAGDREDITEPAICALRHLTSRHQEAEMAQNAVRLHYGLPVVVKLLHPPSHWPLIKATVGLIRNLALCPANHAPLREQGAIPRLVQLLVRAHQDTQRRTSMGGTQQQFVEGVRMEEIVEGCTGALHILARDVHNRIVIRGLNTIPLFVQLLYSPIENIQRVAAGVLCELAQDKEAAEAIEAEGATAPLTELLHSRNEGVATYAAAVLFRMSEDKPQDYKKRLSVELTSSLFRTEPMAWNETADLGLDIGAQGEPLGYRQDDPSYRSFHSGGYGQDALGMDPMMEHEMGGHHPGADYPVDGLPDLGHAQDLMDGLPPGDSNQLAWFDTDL
- experimental.details: Fluorescence polarization IC50 (beta-catenin / 5FAM-TCF4 10-53 competition)
- Type: binding
- experimental.setup: fluorescence polarization; read-out: beta-Catenin FP IC50
Provide the reported pIC50 of each item.
Give bare numbers, as −log10 of the molar value.

Past entries and their recorded results:
Data request, read-out pIC50, for CC[C@H](C)[C@@H]1NC(=O)[C@H](CC(=O)O)NC(=O)[C@]2(CC=CCCCC3(CCCC=CCCCCCC[C@@](C)(C(=O)N[C@@H](Cc4ccsc4)C(=O)N[C@@H](Cc4csc5ccccc45)C(=O)N[C@@H](Cc4c[nH]cn4)C(N)=O)NC(=O)[C@H](CC(N)=O)NC(=O)[C@H](Cc4ccccc4)NC(=O)[C@H](C)NC(=O)[C@H](C)NC(=O)[C@H](CC(=O)O)NC(=O)[C@H](CC(=O)O)NC3=O)NC1=O)CCCN2C(C)=O (stereo partly drawn) [I-556]
7.70

# input compound: CC(=O)N1CCC[C@]12CCCCCCC1(CCCCCCCCOC(=O)N3CC[C@@](C(=O)N[C@@H](Cc4ccccc4C)C(=O)N[C@@H](Cc4csc5ccccc45)C(=O)N[C@@H](CCC(N)=O)C(N)=O)(C3)NC(=O)[C@H](CC(C)C)NC(=O)[C@H](Cc3ccccc3)NC(=O)[C@H](C)NC(=O)[C@H](C)NC(=O)[C@H](CN(CC(=O)O)CC(F)(F)F)NC(=O)[C@H](CC(=O)O)NC1=O)NC(=O)[C@H](CC(C)(C)C)NC(=O)[C@H](CC(=O)O)NC2=O (stereo partly drawn) ; wanted: its pIC50
6.56

--- query ---
# input compound: CC(=O)N1CCC[C@]12CC=CCCCC1(CCCC=CCCCCCC[C@@](C)(C(=O)N[C@@H](CCc3ccccc3)C(=O)N[C@@H](Cc3csc4ccccc34)C(=O)N[C@@H](CCC(N)=O)C(N)=O)NC(=O)[C@H](CC(N)=O)NC(=O)[C@H](Cc3ccccc3)NC(=O)[C@H](C)NC(=O)[C@H](C)NC(=O)[C@H](CCC(=O)O)NC(=O)[C@H](CC(=O)O)NC1=O)NC(=O)[C@H](C)NC(=O)[C@H](CC(=O)O)NC2=O (stereo partly drawn) [I-443] ; wanted: its pIC50
5.67

----------
- experimental.details: Solubility in PBS
- Format: physicochemical
- experimental.setup: Solubility (uM)
Would you kindly list Solubility for each of these molecules?
Answers are plain numbers, in µM.

For CC(=O)N1CCC[C@]12CC=CCCCC1(CCCC=CCCCCCC[C@@](C)(C(=O)N[C@@H](Cc3ccccc3)C(=O)N[C@@H](Cc3csc4ccccc34)C(=O)N[C@@H](CCC(N)=O)C(N)=O)NC(=O)[C@H](C(C)C)NC(=O)[C@H](Cc3ccccc3)NC(=O)[C@H](C)NC(=O)[C@H](C)NC(=O)[C@H](CC(=O)O)NC(=O)[C@H](CC(=O)NC(C)C)NC1=O)NC(=O)[C@H](C)NC(=O)[C@H](CC(=O)O)NC2=O (some centres unmarked) , what is its reported Solubility?
47

***
Find the recorded Solubility belonging to CC(=O)N1CCC[C@]12CC=CCCCC1(CCCC=CCCCOC(=O)N3CC[C@@](C(=O)N[C@@H](Cc4ccsc4)C(=O)N[C@@H](Cc4csc5ccccc45)C(=O)N[C@@H](CCC(N)=O)C(N)=O)(C3)NC(=O)[C@H](CC(N)=O)NC(=O)[C@H](Cc3ccccc3)NC(=O)[C@H](C)NC(=O)[C@H](C)NC(=O)[C@H](CC(N)=O)NC(=O)[C@H](CC(=O)O)NC1=O)NC(=O)[C@H](CC(C)(C)C)NC(=O)[C@H](CC(=O)O)NC2=O (some centres unmarked) and report it.
41

----------
- experimental.details: Solubility in PBS
- Format: physicochemical
Provide the recorded Solubility for the entries that follow.
One number for each entry, in µM.

Examples with answers:
Given the entry CC[C@@H]1NC(=O)[C@H](CC(=O)O)NC(=O)[C@]2(CC=CCCCC3(CCCC=CCCCCCC[C@@](C)(C(=O)N[C@@H](Cc4ccccc4)C(=O)N[C@@H](Cc4csc5ccccc45)C(=O)N[C@@H](CCC(N)=O)C(N)=O)NC(=O)[C@H](CCC(N)=O)NC(=O)[C@H](Cc4ccccc4)NC(=O)[C@H](C)NC(=O)[C@H](C)NC(=O)[C@H](CCC(=O)O)NC(=O)[C@H](CC(=O)O)NC3=O)NC1=O)CCCN2C(C)=O (some centres unmarked) , report its measured Solubility.
49

Data request, read-out Solubility, for CCCC[C@@H]1NC(=O)[C@H](CCC(=O)O)NC(=O)[C@H](CC(=O)O)NC(=O)C2(CCCC=CCCCCCC[C@@](C)(C(=O)N[C@@H](Cc3ccccc3)C(=O)N[C@@H](Cc3csc4ccccc34)C(=O)N[C@@H](CCC(N)=O)C(N)=O)NC(=O)[C@H](CCC(N)=O)NC(=O)[C@H](Cc3ccccc3)NC(=O)[C@H](C)NC1=O)CCCC=CC[C@]1(CCCN1C(C)=O)C(=O)N[C@@H](CC(=O)O)C(=O)N[C@@H]([C@@H](C)CC)C(=O)N2 (some centres unmarked) [I-656]
40

# lookup: Solubility of CC[C@@H]1NC(=O)[C@H](CC(=O)O)NC(=O)[C@]2(CC=CCCCC3(CCCC=CCCCCCC[C@@](C)(C(=O)N[C@@H](Cc4ccccc4)C(=O)N[C@@H](Cc4csc5ccccc45)C(=O)N[C@@H](CCC(N)=O)C(N)=O)NC(=O)[C@H](CC(N)=O)NC(=O)[C@H](Cc4ccccc4)NC(=O)[C@H](C)NC(=O)[C@H](C)NC(=O)[C@H](CCC(=O)O)NC(=O)[C@H](CC(=O)O)NC3=O)NC1=O)CCCN2C(C)=O (some centres unmarked) [I-473]
39

I'd like to know its Solubility. The compound in question is CC(=O)N1CCC[C@]12CC=CCCCC1(CCCC=CCCCOC(=O)N3CC[C@@](C(=O)N[C@@H](Cc4ccsc4)C(=O)N[C@@H](Cc4csc5ccccc45)C(=O)N[C@@H](CO)C(N)=O)(C3)NC(=O)[C@H](CCO)NC(=O)[C@H](Cc3ccccc3)NC(=O)[C@H](C)NC(=O)[C@H](C)NC(=O)[C@H](CN(CC(=O)O)CC(F)(F)F)NC(=O)[C@H](CC(=O)O)NC1=O)NC(=O)[C@H](CC(C)(C)C)NC(=O)[C@H](CC(=O)O)NC2=O (some centres unmarked) [I-959]
48

Others:
For the compound CC(=O)N1CCC[C@]12CC=CCCCC1(CCCC=CCCCOC(=O)N3CC[C@@](C(=O)N[C@@H](Cc4ccsc4)C(=O)N[C@@H](Cc4csc5ccccc45)C(=O)N[C@@H](CO)C(N)=O)(C3)NC(=O)[C@H](Cc3ccccc3)NC(=O)[C@H](Cc3ccccc3)NC(=O)[C@H](C)NC(=O)[C@H](C)NC(=O)[C@H](Cc3cccc(C(=O)O)c3)NC(=O)[C@H](CC(=O)O)NC1=O)NC(=O)[C@H](CC(C)(C)C)NC(=O)[C@H](CC(=O)O)NC2=O (some centres unmarked) [I-983] , what Solubility is on record?
10
